# assay.method.text: NCI Yeast Anticancer Drug Screen. Data for the mlh1 rad18 strain (AID 175)
# condition.summary: S. cerevisiae mlh1 rad18 strain growth inhibition; at 50.0 µM (retest, dose inferred, filed as 5.0)
Compounds without any hit were thinned out: in the full panel of roughly 79,000, 15% have a hit. Active and inactive are the calls of the source. No stated cut-off is given here; in the data, active means growth inhibition above about 70%; inactive means the rest.
The categories you may choose from are 1.0 = active, 0.0 = inactive

As a guide, the following entries are already answered.
molecule	class.assignment
O=C1C(Cl)=C(Cl)C(=O)c2cc(Cl)c(Cl)cc21	1.0
COc1cc(CC(=O)O)c(Cc2ccc3c(c2)Cc2ccccc2-3)cc1OC	1.0
C[C@]12CC[C@@H]3c4ccc(O)cc4CC[C@H]3[C@@H]1CC[C@@H]2NCCCCCCO	0.0
NC(=O)SCC(=O)Nc1ccccc1	1.0
COc1ccc(/C=N/Nc2cc(C)nc3cc4c(cc23)OCO4)c2ccccc12	1.0

Can you look up the reported call for CCCCCCCCCCNC(=O)C[n+]1cccc(C(=O)NCc2ccccc2)c1 for me?
1.0

Can you look up the reported call for [Cl][Ge]([c]1ccccc1)[c]1ccccc1.[Cl][Ge]([c]1ccccc1)[c]1ccccc1 for me?
1.0

Can you look up the reported call for O=C(NC(Cc1ccc(I)cc1)C(=O)O)c1cccc(Br)c1 (configuration not stated) for me?
0.0

Can you look up the reported call for CCCCCN(CCCCC)C(C)C(=O)c1ccc2cc(Br)c3ccccc3c2c1 (configuration not stated) for me?
0.0

Can you look up the reported call for COc1cccc(C2Nc3ccccc3C(=O)N2N2CCOCC2)c1 (configuration not stated) for me?
0.0

Can you look up the reported call for N#CC(C#N)C(c1ccccc1)c1ccccc1 for me?
0.0

Can you look up the reported call for CCCCCCCCCCCCCCCC1(OC)C[N+](C)(C)CCO1 (configuration not stated) for me?
1.0

Reference for the values: PubChem BioAssay (NCI)
